# EXPERIMENTAL SYSTEM: T1, hIL-18BP-hFc (human, UniProt O95998 31-194, limits assumed)
# T1 sequence (looked up): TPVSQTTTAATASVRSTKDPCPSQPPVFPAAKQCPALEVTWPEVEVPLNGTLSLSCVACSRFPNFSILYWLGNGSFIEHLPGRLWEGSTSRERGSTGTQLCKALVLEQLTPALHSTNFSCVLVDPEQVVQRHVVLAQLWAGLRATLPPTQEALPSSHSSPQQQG
# PROTOCOL TEXT: cell-based or functional assay
OUTCOME MEASURE: EC50 Fold Change (+BP/-BP), hIL-18 reporter assay (fold)
Write the value in fold as a bare number.

Ask: Provide only the value of recorded EC50 Fold Change (+BP/-BP), hIL-18 reporter assay for IL-18 variant polypeptide LM5 (ligand) YFGKLRSKLSVIRNLNDQVLFIDQGNRPLFEDMTDSDCRDNAPRTIFIISMYKWSSQRGMAVTISVKCEKISTLSCENKIISFKEMNPPDNIKDTKSDIIFFQRSVPGHDNKMQFESSSYEGYFLACEKERDLFKLILKKEDELGDRSIMFTVQNED
Reply: 0.92

Ask: Provide only the value of recorded EC50 Fold Change (+BP/-BP), hIL-18 reporter assay for IL-18 variant polypeptide LM2 (ligand) YFPKLRSKLSVIRNLNDQVLFIDQGNRPLFEDMTDSDCRDNAPRTIFIISMYKLSGSRGMAVTISVKCEKISTLSCENKIISFKEMNPPDVIKDTKSDIIFFQRSVPGHDNKMQFESSSYEGYFLACEKERDLFKLILKKEDELGDRSIMFTVQNED
Reply: 0.5

Ask: Provide only the value of recorded EC50 Fold Change (+BP/-BP), hIL-18 reporter assay for IL-18 variant polypeptide M11 (ligand) YFPKLRSKLSVIRNLNDQVLFIDQGNRPLFEDMTDSDCRDNAPRTIFIISMYKSSRNRGMAVTISVKCEKISTLSCENKIISFKEMNPPDGIKDTKSDIIFFQTSVPGHDNKMQFESSSYEGYFLACEKERDLFKLILKKEDELGDRSIMFTVQNED
Reply: 1.62

src = patent US20260092093A1
